experiment: yeast display, Sf9 membrane polyspecificity reagent, FACS + sequencing; frameworks hold sequencing errors
RESULT TYPE: polyreactivity (PSR sort gate)

Exam item: Tell me polyreactivity (PSR sort gate) reported for `QVQLVESGGGLVQAGGSLRLSCAASGSIFAIYTMGWYRQAPGKVRELVAGITKSGGNTYYADSVKGRFTISRDNAKNTVYLQMNSLKPEDTSVYYCAASQYEYYDGWYRYDYWGQGTQVTVSS`
Marked response: high polyreactivity

Exam item: Quick one: give measured polyreactivity (PSR sort gate) for `QVQLVESGGGLVQAGGSLRLSCAASGSTFWYYAMGWYRQAPGKERELVAAITTGGDTTNYADSVKGRFTISRDNAKNTVYLQMNSLKPEDTAVYYCARDTGYDLIVLPDDSWGQGTQVTVSS`
Marked response: low polyreactivity

Exam item: Identify polyreactivity (PSR sort gate) associated with the sequence `QVQLDESGGGLVQAGGSHRLSCAASGYIFGYYAMGWSRQAPGKERELVAAISKSGTDTYYADSVKGRFTISRDYAKNTVFLQMNSLKPEDTAVYYCNALLRGYSYGYDYWGQGTQVTVSS`
Marked response: high polyreactivity

Exam item: Supply measured polyreactivity (PSR sort gate) of `QVQLVESGGGLVQAGGSLRLSCAASGIIFVTNDMGWYRQAPGKERELVATITWSGGSTYYADSVKGRFTISRDNAKNTVYLQMNSLKPEDSAVYYCAAESRYTWIHSRDYWGQGTQVTVSS` in your reply.
Marked response: low polyreactivity

Exam item: Tell me measured polyreactivity (PSR sort gate) for `QVQLVESAGGLVQAGGSLRLSCAASGITFTYYAMGWYRQAPGKERELVATISYGGGITYYADSVKGRFTISRDNAKNTVYLQMNSLKPEDTAVYYCNADGATVWSLEYWGQGTQVTVSS` please.
Marked response: low polyreactivity

Exam item: In one line, give reported polyreactivity (PSR sort gate) of the entry `QVQLVESGGGLVQAGGSLRLSCAASGFIFYWYAMGWYRQAPWKEREFVAAISSSGGNTSYADSVKGRFTISRDNAKNTVYLQMNSLKPEVTAVYYCAATSRAFYRSLYYYWGQGTQVTVSS` .
Marked response: low polyreactivity

***
Exam item: Write down polyreactivity (PSR sort gate) measured for item `QVQLVESGGGLVQAGGSLRLRCSASGSTIKDYTMGLYRQAPGKERELVAAITDSGGSTYYADSVKGRFTISRDNAKNTVYLQMNSLTPEDTAVYFCAAAVPELYEVRYHDDYWGQGTQVTVSS`
Marked response: low polyreactivity

---

assay: yeast display, Sf9 membrane polyspecificity reagent, FACS + sequencing; frameworks hold sequencing errors
RESULT TYPE: polyreactivity (PSR sort gate)

Below: 6 sequences and their reported polyreactivity (PSR sort gate).
Exam item: Tell us which polyreactivity (PSR sort gate) value is on record for `QVQLEESGGVLVQAGGSHRLRCAASGRTIGWYAMGWYRQAPRKERELVAAIRSSTGSTYYADSVKGRFTISRDNAKNTVFLQMNSLKPEDTAVYDCAKRRADYSPRYGYWGQGTQVTVSS`
Marked response: high polyreactivity

Exam item: Read off the recorded polyreactivity (PSR sort gate) for `QVQLVESGAGLVQAGGSLRLSCAASGSIFVQYAMGWSRQAPRNERELVAGISSIGGSTYYADSVKGRFTLSRDNSKNSVYLQMNSLKPEDTAVYYCAKRWRSSYRIGHDYWRQGTQVTVSS`
Marked response: low polyreactivity

Exam item: Quickly give me recorded polyreactivity (PSR sort gate) for `QVQLVESGGGLVQAGGSLRLSCAATGSILVYYAMGWSRQAPGKERELVAAISSGGSTNYADSVKGRFTISRDNAKNTVYLQMNSLKPEDTAVYYCDKESGWVGAIHYDYWGQGTQVTVSS`
Marked response: low polyreactivity

Exam item: Report polyreactivity (PSR sort gate), nothing else, for this sequence: `QVQLVESGGGLVQAGGSLRLSCAASGITFAYYVMGWYRQAPGKERELVATITGRGGSTSYADSVKGRFTISRDNEKNPVYLQMNSLKPEETAVYYCATGRYSVADNYWGQGTQVTVSS`
Marked response: high polyreactivity

Exam item: Fill in polyreactivity (PSR sort gate) for record `QVQLVESGGGLVQAGGSLRLSCAASGRIFRGNTMGWYRQAPGKERELVAAITRGGSTSYADSVKGRFTISRDNAKNTVYLQMNSLKPEDTAVFYCATRTHGEGTRRDSWGQGTQVTVSS`
Marked response: low polyreactivity

Exam item: Write down polyreactivity (PSR sort gate) measured for item `QVQLVESGGGLVQAGGSLRLSCAASGSIFQRYTMGWYRQAPGKERELVARISGRGGSTYYADSVKGRFTISRDNAKNTVYLQMNSMKPEDTAVYYCAADTGRYLDSNYWGQGTQVTVSS`
Marked response: high polyreactivity

***
Exam item: Determine its reported polyreactivity (PSR sort gate): `QVQLVESGGGVVQAGGSLRLSCAASGSIFDPYAMGWYRHARGKERELVAALNSDGSTNYADSVKGRFTISRDNAKNTDYLQLNSLKPEDTAVYYCAARTFTLRGDDSWGQGSQVTVSS`
Marked response: low polyreactivity

Exam item: Report measured polyreactivity (PSR sort gate); entry is `KGQLVESGGGLVQAGGSLRLSCAASGSIFGENAMGWYRQAPGKERELVAAITSSGSTYYADSVKGRFTISRANAKNTVYLQMNSLKPEDTAVYYCAKVSVLRMDYWGQGTQVTVSS`
Marked response: low polyreactivity

Exam item: Entry `QVQLHESGSGLVQAGGSLRLSCAASGAIFPANLMGWYRQAPGKERELVAGISYGSITYCADSVKGRFNISRDNAKHTVYLQMNSLKPEDTAVYYCEVWRPGGDEYYYWGQGTQVTVSS` needs its polyreactivity (PSR sort gate) filled in; supply it.
Marked response: low polyreactivity

Exam item: Dear colleague, please send me the reported polyreactivity (PSR sort gate) for `QVQLVESGGGLVQAGGSLRLSCAASGRTFTPYAMGWYRQAPGKERELVAAINSDGSTNYADSVKGRFTISRDNAKNTVYLQMNSLKPEDTAVYYCAAGYSLEGDYWGQGTQVTVSS` when you can.
Marked response: low polyreactivity

Exam item: Quickly give me recorded polyreactivity (PSR sort gate) for `QVQLVESGGGLVQAGGSLRLSCAASGLTFSVYAMGWSRQAPGKERELVASITRSGGSTYYADSVKGRFTISRDNAKNTVYLQMNSLKPEDTADYYCNADKYYGFDYWGQGTQVTVSS`
Marked response: high polyreactivity
